Values compiled from paper PMC9569990.

systemTested: T1, Interleukin-10 (human, UniProt P22301 19-178)
T1 construct: Interleukin-10, human, UniProt P22301; see the manufacturer's catalogue number; also called IL-10; source: bought: PeproTech (source E. coli)
T1 sequence (P22301 19-178): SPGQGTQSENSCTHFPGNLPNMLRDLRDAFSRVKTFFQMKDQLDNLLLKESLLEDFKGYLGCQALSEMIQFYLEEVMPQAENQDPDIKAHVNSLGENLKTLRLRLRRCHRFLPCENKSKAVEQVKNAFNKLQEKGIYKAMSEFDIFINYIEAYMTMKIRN
methodSummary: SPR; cytokine immobilised on ProteOn GLH sensor chip by amine coupling (9,000-14,000 RU); S100P (wild type or mutant) as analyte, 62 nM-16 µM; 25 °C; 10 mM HEPES, 150 mM NaCl, 1 mM CaCl2, 0.05% TWEEN 20, pH 7.4; heterogeneous ligand model (two ligand populations), one-site model for IL-13; values averaged over analyte concentrations (n = 3-5)
measurementParameters: both partners purified
metric: Kd

For Human S100P mutant Δ42–47 (lacks PGFLQS sequence in the 'hinge') (natural protein, S100P protein, human, recombinant, with residues 42-47 (PGFLQS) deleted; source: E. coli, prepared as previously described [28]) MTELETAMGMIIDVFSRYSGSEGSTQTLTKGELKVLMEKELGKDKDAVDKLLKDLDANGDAQVDFSEFIVFVAAITSACHKYFEKAGLK , write its Kd.
> 100 µM
